Origin of the recorded values: patent US20090304692A1

Listing: IC50 of selected compounds
Target: PI3K-α (Homo sapiens)
Assay: PI3K-alpha fluorescence polarization assay
Conditions: read-out: IC50 PI3Kα
parameter.measured: IC50 (nM)

- compound: "CNC(=O)Nc1ccc(-c2nc(N3CC4CCC(C3)O4)nc(N3CC4CCC(C3)O4)n2)cc1 [Example 26]"
  reported.result: 680
- compound: "COCCOc1nc(-c2ccc(NC(=O)Nc3ccc(C(=O)OC)cc3)cc2)nc(N2CCOCC2)n1 [Example 211]"
  reported.result: 80
- compound: "CC(C)c1nc(-c2ccc(NC(=O)Nc3ccc(C(=O)O)cc3)cc2)nc(N2CCOCC2)n1 [Example 301]"
  reported.result: 21
- compound: "CCS(=O)(=O)N1CCN(c2nc(-c3ccc(NC(=O)Nc4ccc(C(=O)O)cc4)cc3)nc(N3CCOCC3)n2)CC1 [Example 652]"
  reported.result: 36
- compound: "C[C@@H]1COCCN1c1nc(-c2ccc(NC(=O)Nc3ccc(N4CCN(C)CC4)cc3)cc2)nc(C2CCOCC2)n1 [Example 421]"
  reported.result: 414
- compound: "O=C(Nc1ccc(-c2nc(NN3CCN(C4CCCC4)CC3)nc(N3CC4CCC(C3)O4)n2)cc1)Nc1cccnc1 [Example 157]"
  reported.result: 1450
- compound: "O=C(Nc1ccc(C(=O)N2CCC(N3CCCCC3)CC2)cc1)Nc1ccc(-c2nc(N3CCOCC3)nc(N3C4CCC3COC4)n2)cc1 [Example 760]"
  reported.result: 4.3

----------
Molecular target: PI3K-α (Homo sapiens)
Assay: PI3K-alpha fluorescence polarization assay
Conditions: read-out: IC50 PI3Kα; listed as 733

- molecular.string: "O=C(Nc1ccncc1)Nc1ccc(-c2nc(CCCN3CCCC3)nc(N3CCOCC3)n2)cc1"
  IC50: "31.5 nM"

----------
Biological target: PI3K-α (Homo sapiens, UniProt P42336)
Sequence (P42336 whole entry, species assumed): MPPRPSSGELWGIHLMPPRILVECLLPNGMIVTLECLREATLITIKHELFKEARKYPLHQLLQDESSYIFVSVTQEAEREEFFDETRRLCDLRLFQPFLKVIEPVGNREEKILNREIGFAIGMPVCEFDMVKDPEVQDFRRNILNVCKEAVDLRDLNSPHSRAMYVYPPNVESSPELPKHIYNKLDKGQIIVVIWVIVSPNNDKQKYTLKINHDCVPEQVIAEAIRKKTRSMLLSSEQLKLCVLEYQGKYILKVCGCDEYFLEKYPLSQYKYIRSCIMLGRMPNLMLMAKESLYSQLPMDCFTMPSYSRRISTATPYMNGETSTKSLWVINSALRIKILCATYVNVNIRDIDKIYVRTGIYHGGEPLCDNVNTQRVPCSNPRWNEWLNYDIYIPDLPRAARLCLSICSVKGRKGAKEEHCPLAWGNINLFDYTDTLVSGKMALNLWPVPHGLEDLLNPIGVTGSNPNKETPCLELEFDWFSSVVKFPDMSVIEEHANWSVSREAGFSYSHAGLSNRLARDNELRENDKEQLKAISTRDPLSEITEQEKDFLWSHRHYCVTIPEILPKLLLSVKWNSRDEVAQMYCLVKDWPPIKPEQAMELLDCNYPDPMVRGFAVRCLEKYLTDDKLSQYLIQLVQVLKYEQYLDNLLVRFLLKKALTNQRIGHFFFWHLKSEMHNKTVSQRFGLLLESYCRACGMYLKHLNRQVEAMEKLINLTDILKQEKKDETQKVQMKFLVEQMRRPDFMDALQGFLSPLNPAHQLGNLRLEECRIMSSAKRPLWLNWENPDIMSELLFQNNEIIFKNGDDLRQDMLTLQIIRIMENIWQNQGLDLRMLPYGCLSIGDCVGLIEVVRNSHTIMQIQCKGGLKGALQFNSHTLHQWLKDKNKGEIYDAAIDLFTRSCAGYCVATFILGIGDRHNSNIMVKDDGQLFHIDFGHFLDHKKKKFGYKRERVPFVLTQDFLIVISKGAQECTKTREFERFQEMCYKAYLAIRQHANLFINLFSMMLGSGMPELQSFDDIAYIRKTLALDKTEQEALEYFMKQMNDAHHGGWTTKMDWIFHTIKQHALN
Sequence (P27986 whole entry partner, species assumed): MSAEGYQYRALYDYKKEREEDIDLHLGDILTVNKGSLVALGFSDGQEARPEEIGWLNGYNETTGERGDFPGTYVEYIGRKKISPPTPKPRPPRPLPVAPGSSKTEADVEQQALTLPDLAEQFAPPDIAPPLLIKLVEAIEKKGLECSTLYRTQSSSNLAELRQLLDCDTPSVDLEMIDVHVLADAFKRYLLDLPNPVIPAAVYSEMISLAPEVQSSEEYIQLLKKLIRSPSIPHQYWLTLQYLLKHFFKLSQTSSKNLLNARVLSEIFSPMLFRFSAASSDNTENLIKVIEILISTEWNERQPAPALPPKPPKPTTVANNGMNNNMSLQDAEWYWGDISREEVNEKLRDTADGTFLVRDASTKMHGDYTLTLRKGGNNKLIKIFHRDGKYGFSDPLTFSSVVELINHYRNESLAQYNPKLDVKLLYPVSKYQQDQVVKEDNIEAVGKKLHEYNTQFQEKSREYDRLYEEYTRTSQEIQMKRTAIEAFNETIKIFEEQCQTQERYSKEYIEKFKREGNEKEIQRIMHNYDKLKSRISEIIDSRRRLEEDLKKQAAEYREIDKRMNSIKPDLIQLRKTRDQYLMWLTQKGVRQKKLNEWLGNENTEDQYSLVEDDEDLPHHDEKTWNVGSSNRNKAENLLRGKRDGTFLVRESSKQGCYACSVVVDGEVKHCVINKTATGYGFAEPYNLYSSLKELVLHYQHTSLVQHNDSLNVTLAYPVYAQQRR
Assay: PI3K-alpha fluorescence polarization assay
Settings: read-out: IC50 PI3Kα
Measured IC50 determines class: L (below 0.02 µM), M (0.02 µM to below 0.1 µM), H (0.1 µM or more)

- molecule: "CN(C)C1CCN(C(=O)c2ccc(NC(=O)Nc3ccc(-c4nc(N5CCOCC5)nc(N5C6CCC5COC6)n4)cc3)cc2)CC1"
  cat: "L"
- molecule: "COCCNC(=O)c1ccc(NC(=O)Nc2ccc(-c3nc(-c4ccccc4)nc(N4CCOCC4)n3)cc2)cc1"
  cat: "M"
- molecule: "CCCN(CCC)C1CCN(C(=O)c2ccc(NC(=O)Nc3ccc(-c4nc(N5CCOC[C@@H]5C)nc(N5CCOC[C@@H]5C)n4)cc3)cc2)CC1"
  cat: "L"
- molecule: "CC(C)Oc1nc(-c2ccc(NC(=O)Nc3ccncc3)cc2)nc(N2CC3CCC(C2)O3)n1"
  cat: "H"
- molecule: "O=C(Nc1ccc(C(=O)O)cc1)Nc1ccc(-c2nc(-c3ccccc3)nc(N3CCOCC3)n2)cc1"
  cat: "M"
- molecule: "CC(=O)NC1CCN(c2nc(-c3ccc(NC(=O)Nc4ccncc4)cc3)nc(N3CCOCC3)n2)CC1"
  cat: "M"
- molecule: "O=C(Nc1ccncc1)Nc1ccc(-c2nc(N3C4CCC3COC4)nc(N3C4CCC3COC4)n2)cc1"
  cat: "H"
- molecule: "CN(C)CCNC1CCN(c2nc(-c3ccc(NC(=O)Nc4ccncc4)cc3)nc(N3CC4CCC(C3)O4)n2)CC1"
  cat: "H"
- molecule: "O=C(Nc1ccc(-c2nc(OCCC3CCNCC3)nc(N3CC4CCC(C3)O4)n2)cc1)Nc1cccnc1"
  cat: "H"
- molecule: "O=C(Nc1ccncc1)Nc1ccc(-c2nc(C3CCOCC3)nc(N3C4CCC3COC4)n2)cc1"
  cat: "H"
- molecule: "O=C(Nc1ccc(C(=O)NCCc2ccncc2)cc1)Nc1ccc(-c2nc(N3CCOCC3)nc(N3C4COCC3COC4)n2)cc1"
  cat: "L"
- molecule: "CN1CCN(c2ccc(Nc3nc(-c4ccc(NC(=O)NC5CC5)cc4)nc(N4CC5CCC(C4)O5)n3)cc2)CC1"
  cat: "H"
- molecule: "C[C@H]1COCCN1c1nc(-c2ccc(NC(=O)Nc3ccc(C(=O)O)cc3)cc2)nc(N2CCOCC2)n1"
  cat: "M"
- molecule: "CN(C)C1CCN(C(=O)c2ccc(NC(=O)Nc3ccc(-c4nc(N5CCOCC5)nc(N5CC6CCC5CO6)n4)cc3)cc2)CC1 (stereo not shown)"
  cat: "L"
- molecule: "O=C(Nc1ccccc1)Nc1ccc(-c2nc(NC3CNC3)nc(N3CCOCC3)n2)cc1"
  cat: "L"
- molecule: "O=C(Nc1ccc(C(=O)NCc2ccccn2)cc1)Nc1ccc(-c2nc(N3CCOCC3)nc(N3CCOCC3)n2)cc1"
  cat: "L"
- molecule: "CN1CCN(c2ccc(NC(=O)Nc3ccc(-c4nc(N5CC6CCC(C5)O6)nc(N5[C@H](CO)CC[C@@H]5CO)n4)cc3)cc2)CC1"
  cat: "H"
- molecule: "CC(C)N1CCCN(c2nc(-c3ccc(NC(=O)Nc4ccc(C(=O)O)cc4)cc3)nc(N3CCOCC3)n2)CC1"
  cat: "M"
- molecule: "CC(C)(C)OC(=O)N1CC(Nc2nc(-c3ccc(NC(=O)Nc4ccccc4)cc3)nc(N3CCOCC3)n2)C1"
  cat: "M"
- molecule: "CC(C)Nc1nc(-c2ccc(NC(=O)Nc3ccc(OCCN(C)C)cc3)cc2)nc(N2C3CCC2COC3)n1"
  cat: "H"
- molecule: "O=C(Nc1ccc(C(=O)N2CCNCC2)cc1)Nc1ccc(-c2nc(N3CCOCC3)nc(N3C4COCC3COC4)n2)cc1"
  cat: "L"
- molecule: "COC(=O)c1ccc(NC(=O)Nc2ccc(-c3nc(N4CCOCC4)nc(N4CCOCC4)n3)cc2)cc1"
  cat: "L"
- molecule: "C[C@@H]1COCCN1c1nc(-c2ccc(NC(=O)Nc3ccncc3)cc2)nc(N2CCOC[C@H]2C)n1"
  cat: "H"
- molecule: "C[C@H]1COCCN1c1nc(-c2ccc(NC(=O)Nc3ccc(C(=O)O)cc3)cc2)nc(N2C3CCC2COC3)n1"
  cat: "M"
- molecule: "CC(C)(C)OC(=O)N1C[C@H]2C[C@@H]1CN2c1nc(-c2ccc(NC(=O)Nc3ccncc3)cc2)nc(N2CCOCC2)n1"
  cat: "M"
- molecule: "O=C(Nc1ccc(C(=O)N2CCNCC2)cc1)Nc1ccc(-c2nc(N3CCOCC3)nc(N3C4CCCC3COC4)n2)cc1"
  cat: "L"
- molecule: "O=C(Nc1ccc(C(=O)NCCN2CCCCC2)cc1)Nc1ccc(-c2nc(C3CCOCC3)nc(N3CCOCC3)n2)cc1"
  cat: "L"
- molecule: "O=C(Nc1ccc(C(=O)O)cc1)Nc1ccc(-c2nc(N3CCC3)nc(N3CCOCC3)n2)cc1"
  cat: "H"

----------
Target: PI3K-α (Homo sapiens, UniProt P42336)
Experiment: PI3K-alpha fluorescence polarization assay
Conditions: read-out: IC50 PI3Kα; listed as 672
pIC50: −log10 of the molar value.
parameter.measured: pIC50

- compound: "O=C(Nc1ccc(F)cc1)Nc1ccc(-c2nc(N3CCOCC3)nc(N3C4CCC3COC4)n2)cc1 [Example 37]"
  parameter.measured: "pIC50"
  reported.result: 7.40

----------
Target: PI3K-α (Homo sapiens)
Assay: PI3K-alpha fluorescence polarization assay
Settings: read-out: IC50 PI3Kα
pIC50: −log10 of the molar value.
pIC50 for assorted compounds

- compound: "CCNC(=O)N1CCC(Oc2nc(-c3ccc(NC(=O)Nc4ccncc4)cc3)nc(N3CCOCC3)n2)CC1"
  pIC50: 8.30
- compound: "O=C(Nc1ccc(C(=O)N2CCOCC2)cc1)Nc1ccc(-c2nc(N3CCOCC3)nc(N3C4CCC3COC4)n2)cc1"
  pIC50: 8.52
- compound: "CN(C)C1CCN(C(=O)c2ccc(NC(=O)Nc3ccc(-c4nc(N5CCOCC5)nc(N5CCOCC5)n4)cc3)cc2)C1 (centres unmarked)"
  pIC50: 9.10
- compound: "O=C(Nc1ccncc1)Nc1ccc(-c2nc(N3CCCOCC3)nc(N3CCOCC3)n2)cc1"
  pIC50: 8.59
- compound: "NCCCCOc1nc(-c2ccc(NC(=O)Nc3cccnc3)cc2)nc(N2CC3CCC(C2)O3)n1"
  pIC50: 6.37
- compound: "CCc1nc(-c2ccc(NC(=O)Nc3ccc(N4CCC(N(C)C)CC4)cc3)cc2)nc(N2CCOCC2)n1"
  pIC50: 8.00
- compound: "C[C@H]1COCCN1c1nc(-c2ccc(NC(=O)Nc3ccc(C(=O)NCCCN(C)C)cc3)cc2)nc(N2CCOCC2)n1"
  pIC50: 8.46
- compound: "O=C(Nc1ccc(C(=O)O)cc1)Nc1ccc(-c2nc(N3CCCOCC3)nc(N3CCOCC3)n2)cc1"
  pIC50: 7.13
- compound: "COC(=O)c1cccc(NC(=O)Nc2ccc(-c3nc(-c4ccc(C)cc4)nc(N4CCOCC4)n3)cc2)c1"
  pIC50: 5.62
- compound: "O=C(Nc1ccc(C(=O)N2CCC(N3CCCC3)CC2)cc1)Nc1ccc(-c2nc(N3CCOCC3)nc(N3C[C@@H]4C[C@H]3CO4)n2)cc1"
  pIC50: 8.22
- compound: "CN(C)CCN1CCN(C(=O)c2ccc(NC(=O)Nc3ccc(-c4nc(N5CCOCC5)nc(N5CCOCC5)n4)cc3)cc2)CC1"
  pIC50: 9.00
- compound: "C[C@@H]1COCCN1c1nc(-c2ccc(NC(=O)Nc3ccncc3)cc2)nc(N2C[C@@H]3C[C@H]2CO3)n1"
  pIC50: 6.08
- compound: "C=C(OCC)c1nc(-c2ccc(NC(=O)Nc3ccncc3)cc2)nc(N2CCOCC2)n1"
  pIC50: 7.36
- compound: "COCCNC(=O)c1ccc(NC(=O)Nc2ccc(-c3nc(-c4cccs4)nc(N4CCOCC4)n3)cc2)cc1"
  pIC50: 7.94
- compound: "CC(=O)c1ccc(NC(=O)Nc2ccc(-c3nc(N4CCOCC4)nc(N4C5CCC4COC5)n3)cc2)cc1"
  pIC50: 7.66
- compound: "CN1CCN(c2ccc(Nc3nc(-c4ccc(NC(=O)Nc5ccccc5)cc4)nc(N4CC5CCC(C4)O5)n3)cc2)CC1"
  pIC50: 7.10
- compound: "Cc1nc(-c2ccc(NC(=O)Nc3ccc(C(=O)NC4CCN(C)CC4)cc3)cc2)nc(N2CCOCC2)n1"
  pIC50: 6.42
- compound: "O=C(Nc1ccncc1)Nc1ccc(-c2nc(N3CCCCC3)nc(N3CC4CCC(C3)O4)n2)cc1"
  pIC50: 6.11
- compound: "Nc1ccc(NC(=O)Nc2ccc(-c3nc(N4CCOCC4)nc(N4CCOCC4)n3)cc2)cc1"
  pIC50: 8.52
- compound: "NCc1ccc(NC(=O)Nc2ccc(-c3nc(N4C5CCC4COC5)nc(N4C5CCC4COC5)n3)cc2)cc1"
  pIC50: 6.96
- compound: "CC(C)N1CCN(C(=O)c2ccc(NC(=O)Nc3ccc(-c4nc(N5CCOCC5)nc(N5CC6CCC5CO6)n4)cc3)cc2)CC1 (centres unmarked)"
  pIC50: 8.49
- compound: "O=C(Nc1ccc(C(=O)O)cc1)Nc1ccc(-c2nc(N3CCOCC3)nc(N3C4COCC3COC4)n2)cc1"
  pIC50: 7.71
- compound: "O=C(Nc1ccncc1)Nc1ccc(-c2nc(NC3CNC3)nc(N3CCOCC3)n2)cc1"
  pIC50: 7.92
- compound: "C[C@@H]1COCCN1c1nc(-c2ccc(NC(=O)Nc3ccc(C(=O)N4CCN(C)CC4)cc3)cc2)nc(N2CCOC[C@@H]2C)n1"
  pIC50: 7.90
- compound: "CN1CCCC1CCNC(=O)c1ccc(NC(=O)Nc2ccc(-c3nc(N4CCOCC4)nc(N4C5CCCC4COC5)n3)cc2)cc1 (centres unmarked)"
  pIC50: 8.30
- compound: "CC(C)c1nc(-c2ccc(NC(=O)Nc3ccc(C(=O)N(C)CCN(C)C)cc3)cc2)nc(N2CCOCC2)n1"
  pIC50: 9.00
- compound: "O=C(Nc1ccncc1)Nc1ccc(-c2nc(N3CCOCC3)nc(N3C(CO)CCC3CO)n2)cc1 (centres unmarked)"
  pIC50: 7.92
- compound: "COC(=O)c1ccc(NC(=O)Nc2ccc(-c3nc(N4CCCOCC4)nc(N4CCOCC4)n3)cc2)cc1"
  pIC50: 7.84
- compound: "CN(C)CCN(C)C(=O)c1ccc(NC(=O)Nc2ccc(-c3nc(N4CCOCC4)nc(N4CC5CCC4CO5)n3)cc2)cc1 (centres unmarked)"
  pIC50: 8.62
